- assay_system: "5-HT1 -like" receptor (Canis lupus familiaris, UniProt P79250)
- Construct: dog isolated saphenous vein strip; from tissue; host or cells: dog isolated saphenous vein strip
- Sequence (P79250 whole entry): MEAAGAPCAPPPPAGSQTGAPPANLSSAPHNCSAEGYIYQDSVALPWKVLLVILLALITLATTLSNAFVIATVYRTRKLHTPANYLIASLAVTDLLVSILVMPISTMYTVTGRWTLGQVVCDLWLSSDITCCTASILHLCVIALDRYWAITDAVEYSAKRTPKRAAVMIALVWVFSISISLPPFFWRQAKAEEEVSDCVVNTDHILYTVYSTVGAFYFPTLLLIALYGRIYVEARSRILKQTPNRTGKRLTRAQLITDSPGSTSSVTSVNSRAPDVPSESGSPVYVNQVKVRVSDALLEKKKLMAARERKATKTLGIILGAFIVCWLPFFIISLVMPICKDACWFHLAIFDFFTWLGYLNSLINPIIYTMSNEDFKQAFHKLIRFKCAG
- procedure_details: contraction of dog isolated saphenous vein strip ("5-HT1 -like" receptor agonist activity)
- test_parameters: dog isolated saphenous vein strip; concentration of compound which causes 50% of the maximum contraction effected by it; read-out: EC50
pEC50: −log10 of the molar value.

# smi, pEC50
records = [
    ("CN(C)C(=O)CCN1CCC[C@@H]1Cc1c[nH]c2ccc(-c3cccc(C(=O)N(C)C)c3)cc12", 6.80),
]

###

Quick list: pEC50 per entry.
- assay_system: "5-HT1 -like" receptor (Canis lupus familiaris)
- Construct: dog isolated saphenous vein strip; from tissue; host or cells: dog isolated saphenous vein strip
- procedure_details: contraction of dog isolated saphenous vein strip ("5-HT1 -like" receptor agonist activity)
pEC50: −log10 of the molar value.
observation_type: pEC50

# compound, assay_system, observation_type, observed
records = [
    ("CN1CCC[C@@H]1Cc1c[nH]c2ccc(-c3ccc(C(N)=O)s3)cc12 [Example 64]", "\"5-HT1 -like\" receptor (Canis lupus familiaris)", "pEC50", 7.60),
    ("CN1CCC[C@@H]1Cc1c[nH]c2ccc(-c3ccc(CO)o3)cc12 [Example 66]", "\"5-HT1 -like\" receptor (Canis lupus familiaris)", "pEC50", 7.72),
    ("OCc1ccc(-c2ccc3[nH]cc(C[C@H]4CCCN4)c3c2)cc1 [Example 37]", "\"5-HT1 -like\" receptor (Canis lupus familiaris)", "pEC50", 7.12),
    ("c1ncc(-c2ccc3[nH]cc(C[C@H]4CCCN4CC4CC4)c3c2)cn1 [Example 60]", "\"5-HT1 -like\" receptor (Canis lupus familiaris)", "pEC50", 8.04),
    ("CN1CCC[C@@H]1Cc1c[nH]c2ccc(-c3cncc(C#N)c3)cc12 [Example 53]", "\"5-HT1 -like\" receptor (Canis lupus familiaris)", "pEC50", 7.59),
    ("CN1CCC[C@@H]1Cc1c[nH]c2ccc(-c3cccc(S(N)(=O)=O)c3)cc12 [Example 3]", "\"5-HT1 -like\" receptor (Canis lupus familiaris)", "pEC50", 8.42),
]
